Reference for the values: the Immune Epitope Database (IEDB)

target: HLA-B*15:01; experiment: IEDB peptide-MHC binding, purified MHC/competitive/fluorescence; filed as Kd, often an IC50 or EC50 that approximates it; bounds were set here for any values at or beyond the usual limits of such assays; details: source organism: Shigella flexneri 5 str. 8401
property label: Kd (nM)
Give just the numeric value; nM need not be written.

query: Give recorded Kd with HLA-B*15:01 for the following sequence: HLTPAQLSM
result: 1780

====

molecular target: HLA-A*02:16; assay: IEDB peptide-MHC binding, purified MHC/direct/fluorescence; filed as Kd, often an IC50 or EC50 that approximates it; bounds were set here for any values at or beyond the usual limits of such assays; settings: source organism: Brucella suis 1330
property label: Kd

query: What does the data say about its Kd? Entry: QAHMGIAGL
result: ≥ 20 µM
